target: FGFR1 (UniProt P11362); test: phosphorylation enrichment, bacterial display (enrichment ratio); higher = better substrate or ligand; peptides without Tyr show the background;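 further: 11-residue human phosphosite peptides and single-mutation variants displayed on the E. coli surface, counted by deep sequencing, each peptide's frequency after selection divided by its frequency in the unselected input library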;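 further: frequency after pTyr selection over input frequency; kinase dosed for 20-30% of maximal phosphorylation in three min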
Sequence (P11362 whole entry, looked up): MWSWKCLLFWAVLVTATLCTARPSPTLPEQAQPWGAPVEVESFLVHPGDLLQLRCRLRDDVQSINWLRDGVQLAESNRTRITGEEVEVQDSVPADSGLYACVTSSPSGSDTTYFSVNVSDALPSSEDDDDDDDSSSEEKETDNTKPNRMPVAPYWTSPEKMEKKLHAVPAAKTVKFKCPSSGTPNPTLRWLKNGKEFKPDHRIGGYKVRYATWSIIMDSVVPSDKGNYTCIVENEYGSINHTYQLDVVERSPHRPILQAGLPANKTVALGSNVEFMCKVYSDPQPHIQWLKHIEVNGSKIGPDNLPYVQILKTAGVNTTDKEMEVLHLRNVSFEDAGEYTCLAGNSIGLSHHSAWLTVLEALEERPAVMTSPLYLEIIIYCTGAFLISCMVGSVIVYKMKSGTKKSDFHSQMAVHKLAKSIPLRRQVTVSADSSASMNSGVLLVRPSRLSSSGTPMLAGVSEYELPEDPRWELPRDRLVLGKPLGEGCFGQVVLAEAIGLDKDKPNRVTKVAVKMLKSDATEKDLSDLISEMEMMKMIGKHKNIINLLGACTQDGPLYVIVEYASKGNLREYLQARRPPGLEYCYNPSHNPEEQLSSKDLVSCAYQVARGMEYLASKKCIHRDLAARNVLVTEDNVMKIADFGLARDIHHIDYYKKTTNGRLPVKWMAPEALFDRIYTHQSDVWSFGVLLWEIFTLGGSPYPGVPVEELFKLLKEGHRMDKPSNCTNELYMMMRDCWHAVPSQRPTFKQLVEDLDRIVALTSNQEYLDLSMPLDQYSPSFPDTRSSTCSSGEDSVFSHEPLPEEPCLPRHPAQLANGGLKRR
Output: class label from phosphorylation enrichment. Mapping: 1: < 0.5; 2: ≥ 0.5 and < 0.7; 3: ≥ 0.7

[[record]]
monomersequence = "TRSFDYMEGGD [FGF7_Y58_YF]"
labelclass = 2

[[record]]
monomersequence = "RLAKTYETTLK [ALB_Y377_E382K]"
labelclass = 2

[[record]]
monomersequence = "RPSGRYPVARR [SHANK3_Y1569]"
labelclass = 2

[[record]]
monomersequence = "DKITQYVEEVR [STX2_Y49_K54R]"
labelclass = 1

[[record]]
monomersequence = "TRYDEYLEVTK [MAP1A_Y2217_H2214Y]"
labelclass = 3

[[record]]
monomersequence = "NELTYYCCKKD [CD59_Y87]"
labelclass = 3


Query: // bin(item) where item = SIKHKYVTALY [KCNH2_Y611_D609H]
Response: 1

Query: // bin(item) where item = LRAGVYREKDQ [DNM2_Y626_P627R]
Response: 1

Query: // bin(item) where item = VSLEAYCKHKF [RXRA_Y403_A398V_YF]
Response: 1

Query: // bin(item) where item = TSSAGYRAAEG [COL6A3_Y543]
Response: 2

Query: // bin(item) where item = AACQHYGVHTC [NR4A2_Y275_R278H]
Response: 1

Query: // bin(item) where item = PGRRFYVVACD [RNASE3_Y134]
Response: 2

Query: // bin(item) where item = RASSVFTRSTG [CCR5_Y339_Y339F]
Response: 2

Query: // bin(item) where item = SIFKDYFRFNF [PLA2G2D_Y85_YF]
Response: 3

Query: // bin(item) where item = FSKRIYKGMVA [PCDH15_Y931]
Response: 1

Query: // bin(item) where item = TFMKKYPKVFL [CNBD1_Y70_Q69K]
Response: 1

Query: // bin(item) where item = ARDVIYIIIPA [FRKtide_2014]
Response: 3

Query: // bin(item) where item = LLREWYVQDPF [SIX3_Y225_L226V_YF]
Response: 3

Query: // bin(item) where item = TRNRDYDDIDD [TTYH2_Y424]
Response: 2

Query: // bin(item) where item = FADIAYNYHHG [PAH_Y166_R169H]
Response: 1

Query: // bin(item) where item = TVLEPYTDPYY [ZC3H18_Y367_A368T]
Response: 3

Query: // bin(item) where item = FTGVEYSSCDT [EPHA3_Y937]
Response: 1
